B1: Serine/threonine-protein kinase A-Raf, residues 21 to 89; numbered along this chain, P10398 (parent)
chain: VKVYLPNKQRTVVTVRDGMSVYDSLDKALKVRGLNQDCCVVYRLIKGRKTVTAWDTAIAPLDGEELIVE

Variants of: B1
Assay: abundance fitness (aPCA) (normalised: wild type 0, dead -1); higher = more abundant; growth selection in yeast, the domain comes from the species named
Conditions: Homo sapiens
Answer each item with its documented abundance fitness.
Give bare numbers.

Give abundance fitness for the following variant: "L44W" -0.059

Give abundance fitness for the following variant: "E69I" -0.81

Give abundance fitness for the following variant: "L29T" -0.845

Give abundance fitness for the following variant: "D17H" -0.279

Give abundance fitness for the following variant: "N7T" -0.655

Give abundance fitness for the following variant: "E69D" -0.248

Give abundance fitness for the following variant: "V1C" -0.184

Give abundance fitness for the following variant: "K49F" -0.63

Give abundance fitness for the following variant: "C39H" -0.171

Give abundance fitness for the following variant: "Q36N" -0.574

Please state, for each entry, its recorded abundance fitness.
1. L61M
2. T14Q
3. E69Y
4. V21E
5. G47E
6. E64C
7. R16E
8. Q9Y

[0.017, 0.034, -0.809, -0.65, -0.573, -0.571, -0.037, -0.458]

Please state, for each entry, its recorded abundance fitness.
1. V41H
2. E65A
3. K49C
4. G47K
5. K2E
6. A53Q

1. -0.641
2. -0.044
3. -0.672
4. -0.768
5. -0.379
6. -0.078

Please state, for each entry, its recorded abundance fitness.
1. T56E
2. L34Y
3. R48T

[0.106, -0.459, -0.072]

Attribution: the Human Domainome abundance scans (Beltran et al. 2025)
